- method.description: stimulators of nuclear beta-catenin in C2C12, primary screen, imaging, WNT3A-conditioned medium, mouse C2C12, NPC library (AID 1117326); note: reference of the scale not given here
- experimental.context: at 10 µM, hits give high values
reported.property: nuclear beta-catenin stimulation (%)
Kindly answer with a numeric value in %, unit omitted.

Guide cases for nuclear beta-catenin stimulation, answers given:
>>> reported_result("Cc1cc(C)c(/C=C2\\C(=O)Nc3ccccc32)[nH]1")
9.9
>>> reported_result("COCC(=O)O[C@]1(CCN(C)CCCc2nc3ccccc3[nH]2)CCc2cc(F)ccc2[C@@H]1C(C)C")
14.4

If you can, please state the reported nuclear beta-catenin stimulation value of CCOc1ccccc1OCC1CNCCO1 (stereo unspecified) . 0.4

Another compound to look at: O=C(CCCCCCC(=O)Nc1ccccc1)NO 7.6

Another compound to look at: CN(C)CCCO[C@@H]1[C@H]2OC(C)(C)O[C@H]2O[C@@H]1C(O)CO (stereo partly specified) -2

Another compound to look at: O[C@@H](CNC[C@H](O)[C@H]1CCc2cc(F)ccc2O1)[C@@H]1CCc2cc(F)ccc2O1 8.6
